Test: qHTS assay to identify small molecule antagonists of the retinoid acid receptor (RAR) signaling pathway - cell viability counter screen (AID 1159551); note: nearly all actives have a fitted effect of over 35% in size
Details: C3RL4 cells viability, ATP luminescence (CellTiter-Glo), 6 h; series mostly up to 92.4 µM
Records with an inconclusive call do not appear. Calls of active or inactive are those of the source. Calls come from the whole dose curve; as a rule, active = well fitted cell-killing curve with a large enough effect in the repeat runs; inconclusive = weak or mixed curves, or effect the other way; inactive = flat fitted curve, though single readings scatter.
Outcome codes: class 1 = active, class 0 = inactive

| MOLECULE | LABEL |
| --- | --- |
| COc1ccc2cccc(CCNC(C)=O)c2c1 | class 0 |
| CCCCCC[C@@H](O)C/C=C\CCCCCCCC(=O)OC | class 0 |
| Nc1cc(C(=O)O)c(O)c(S(=O)(=O)O)c1 | class 0 |
| C/C=C/C=C/CO | class 0 |
| CCN(CC)c1ccc(C(=C2C=CC(=[N+](CC)CC)C=C2)c2cc(S(=O)(=O)O)ccc2S(=O)(=O)[O-])cc1 | class 1 |
| CC(=O)OC[C@H]1O[C@@H](n2ncc(=O)[nH]c2=O)[C@H](OC(C)=O)[C@@H]1OC(C)=O | class 0 |
| CCOC(=O)NCCOc1ccc(Oc2ccccc2)cc1 | class 0 |
| CC[N+]1(CC)CCC(=C(c2ccccc2)c2ccccc2)C1C (stereo unspecified) | class 0 |
| COc1ccc(C)cc1[N+](=O)[O-] | class 0 |
| COc1cc(C(=O)OCCCN2CCCN(CCCOC(=O)c3cc(OC)c(OC)c(OC)c3)CC2)cc(OC)c1OC | class 0 |
| CN(C)CCCN1c2ccccc2Sc2ccccc21 | class 0 |
| C=CCOc1ccccc1OCC(O)CNC(C)C (stereo unspecified) | class 0 |
| CC(C)(C)Cl | class 0 |
| O=C1CCCCCCCCCCCC(=O)OCCO1 | class 0 |
| CN1CCC(=C2c3ccccc3Sc3ccccc32)CC1 | class 0 |
| COS(=O)(=O)C(F)(F)F | class 0 |
| C[N+]1(CC2COC(c3ccccc3)(C3CCCCC3)O2)CCCCC1 (stereo unspecified) | class 0 |
| c1ccc(CNCCNCc2ccccc2)cc1 | class 0 |
| O=C(CS)Nc1ccccc1 | class 0 |
| O=C(O)c1nc(Cl)c(Cl)c(Cl)c1Cl | class 0 |
| CC(C)(CO)[N+](=O)[O-] | class 0 |
| O=C(Nc1ccc(S(=O)(=O)N2CCOCC2)cc1)c1cc(Cl)ccc1NS(=O)(=O)c1ccc(Cl)s1 | class 0 |
| c1cc(CCCc2ccncc2)ccn1 | class 0 |
| Nc1ccc([N+](=O)[O-])c(C(F)(F)F)c1 | class 0 |
| CCN(CC)CCNC(=O)c1cc(Br)c(N)cc1OC | class 0 |
| CCO[Si](CCCCl)(OCC)OCC | class 0 |
| C#CCN(C)CCCOc1ccc(Cl)cc1Cl | class 0 |
| C[C@@H]1C[C@H]2[C@@H]3CCC4=CC(=O)C=C[C@]4(C)[C@@]3(F)[C@@H](O)C[C@]2(C)[C@@]1(O)C(=O)COC(=O)c1ccncc1 | class 0 |
| O[C@@H](COc1cccc2ncccc12)CN1CCN(C2c3ccccc3[C@@H]3[C@H](c4ccccc42)C3(F)F)CC1 (stereo partly specified) | class 0 |
| Nc1ccc(N)c2c1C(=O)c1ccccc1C2=O | class 1 |
| O=C(O)C1(C(=O)Nc2ccc(Cl)cc2Cl)CC1 | class 0 |
| Nc1cccc(S(=O)(=O)c2cccc(N)c2)c1 | class 0 |
| CN1C[C@H]2c3ccccc3Oc3ccc(Cl)cc3[C@@H]2C1 | class 0 |
| COc1ccc(S(=O)(=O)N2C(=O)[C@@](c3ccccc3OC)(N3C[C@H](O)C[C@H]3C(=O)N(C)C)c3cc(Cl)ccc32)c(OC)c1 | class 0 |
| CC(C)Cc1ccc(C(C)C(=O)OCc2ccccn2)cc1 (stereo unspecified) | class 0 |
| O=[N+]([O-])c1ccc(NCCO)c(OCCO)c1 | class 0 |
| NCc1ccccc1Sc1ccccc1CO | class 0 |
| C[C@H](CCC(=O)O)[C@H]1CC[C@H]2[C@@H]3CC[C@@H]4C[C@H](O)CC[C@]4(C)[C@H]3C[C@H](O)[C@]12C | class 0 |
| CC(C)(COC(=O)c1ccccc1)COC(=O)c1ccccc1 | class 0 |
| C=C1C(=C/C=C2\CCC[C@]3(C)[C@@H]([C@H](C)/C=C/[C@@H](O)C4CC4)CC[C@@H]23)C[C@@H](O)C[C@@H]1O | class 0 |
| CC(C)C[C@H]1C(=O)N2CCC[C@H]2[C@]2(O)O[C@](NC(=O)[C@@H]3C=C4c5cccc6[nH]c(Br)c(c56)C[C@H]4N(C)C3)(C(C)C)C(=O)N12 | class 0 |
| CN(C)CCOC(c1ccccc1)c1ccc(Br)cc1 (stereo unspecified) | class 0 |
| OCc1cc(C(O)CNCCCCCCOCCCCc2ccccc2)ccc1O (stereo unspecified) | class 0 |
| Cc1oc(-c2ccccc2)nc1CCOc1cccc2c1ccn2CCC(=O)O | class 0 |
| O=C(c1ccc(F)cc1)C1CCN(CCn2c(=S)[nH]c3ccccc3c2=O)CC1 | class 0 |
| Nc1ccccc1S(=O)(=O)c1ccccc1 | class 0 |
